Biological target: Adenosine receptor A1 (Homo sapiens) (UniProt P30542)
Sequence (P30542 whole entry): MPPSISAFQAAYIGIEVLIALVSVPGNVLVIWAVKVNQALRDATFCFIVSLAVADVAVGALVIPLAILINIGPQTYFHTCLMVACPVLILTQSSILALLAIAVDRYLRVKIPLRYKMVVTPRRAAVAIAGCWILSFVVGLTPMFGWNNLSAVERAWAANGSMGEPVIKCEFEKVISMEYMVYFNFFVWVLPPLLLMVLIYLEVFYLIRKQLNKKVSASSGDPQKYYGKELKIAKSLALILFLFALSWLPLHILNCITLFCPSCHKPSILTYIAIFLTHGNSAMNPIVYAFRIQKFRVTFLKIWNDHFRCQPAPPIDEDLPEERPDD
Test: Agonist activity at human adenosine A1 receptor expressed in CHO cells assessed as Gs-mediated activation of forskolin-stimulated SPAP secretion incubated for 10 mins prior to forskolin challenge measured after 5 hrs by spectrophotometry
Type: functional, cell-based
Active and inactive are the calls of the source. No cut-off for these calls is given here.
MEASUREMENT LABEL: Activity

ENTRY SMILES	MEASUREMENT LABEL	RECORDED RESULT
CCNC(=O)[C@H]1O[C@@H](n2cnc3c(NCCOCCOCCOCCNC(=O)COc4ccc(/C=C/C5=[N+]6C(=Cc7ccc(-c8cccs8)n7[B-]6(F)F)C=C5)cc4)ncnc32)[C@H](O)[C@@H]1O	Activity	inactive
CCNC(=O)[C@H]1O[C@@H](n2cnc3c(NCCOCCOCCNC(=O)COc4ccc(/C=C/C5=[N+]6C(=Cc7ccc(-c8cccs8)n7[B-]6(F)F)C=C5)cc4)ncnc32)[C@H](O)[C@@H]1O	Activity	inactive
CCNC(=O)[C@H]1O[C@@H](n2cnc3c(NCCCNC(=O)COc4ccc(/C=C/C5=[N+]6C(=Cc7ccc(-c8cccs8)n7[B-]6(F)F)C=C5)cc4)ncnc32)[C@H](O)[C@@H]1O	Activity	188%
CCNC(=O)[C@H]1O[C@@H](n2cnc3c(NCCCCCCCCNC(=O)COc4ccc(/C=C/C5=[N+]6C(=Cc7ccc(-c8cccs8)n7[B-]6(F)F)C=C5)cc4)ncnc32)[C@H](O)[C@@H]1O	Activity	inactive
CCNC(=O)[C@H]1O[C@@H](n2cnc3c(N)ncnc32)[C@H](O)[C@@H]1O	Activity	177%
CCNC(=O)[C@H]1O[C@@H](n2cnc3c(NCCNC(=O)COc4ccc(/C=C/C5=[N+]6C(=Cc7ccc(-c8cccs8)n7[B-]6(F)F)C=C5)cc4)ncnc32)[C@H](O)[C@@H]1O	Activity	64%
CCNC(=O)[C@H]1O[C@@H](n2cnc3c(NCCCCCCCCCCCNC(=O)COc4ccc(/C=C/C5=[N+]6C(=Cc7ccc(-c8cccs8)n7[B-]6(F)F)C=C5)cc4)ncnc32)[C@H](O)[C@@H]1O	Activity	inactive
CCNC(=O)[C@H]1O[C@@H](n2cnc3c(NCCCCNC(=O)COc4ccc(/C=C/C5=[N+]6C(=Cc7ccc(-c8cccs8)n7[B-]6(F)F)C=C5)cc4)ncnc32)[C@H](O)[C@@H]1O	Activity	155%

###

List of Activity values.
Molecular target: UniProtKB P30542
Assay: Displacement of [3H]DPCPX from human adenosine A1 receptor expressed in CHO cells after 2 hrs by scintillation counting analysis relative to control
Assay type: cell-based
MEASUREMENT LABEL: Activity (%)

ENTRY SMILES	RECORDED RESULT
CCNC(=O)[C@H]1O[C@@H](n2cnc3c(N)ncnc32)[C@H](O)[C@@H]1O	73
CCNC(=O)[C@H]1O[C@@H](n2cnc3c(NCCCCNC(=O)COc4ccc(/C=C/C5=[N+]6C(=Cc7ccc(-c8cccs8)n7[B-]6(F)F)C=C5)cc4)ncnc32)[C@H](O)[C@@H]1O	43
CCNC(=O)[C@H]1O[C@@H](n2cnc3c(NCCNC(=O)COc4ccc(/C=C/C5=[N+]6C(=Cc7ccc(-c8cccs8)n7[B-]6(F)F)C=C5)cc4)ncnc32)[C@H](O)[C@@H]1O	50
CCNC(=O)[C@H]1O[C@@H](n2cnc3c(NCCCNC(=O)COc4ccc(/C=C/C5=[N+]6C(=Cc7ccc(-c8cccs8)n7[B-]6(F)F)C=C5)cc4)ncnc32)[C@H](O)[C@@H]1O	59
